Hey, just so you know, these numbers are from ChEMBL document CHEMBL4145598.

Parameter: MIC. Scope: all listed entries.
# Test system: Staphylococcus epidermidis
# Assay Overview: Antimicrobial activity against methicillin-sensitive Staphylococcus epidermidis ATCC 12228 after 18 hrs by agar dilution assay
# Assay type: functional
# Cond: ATCC 12228, 18 h
Please give a number only; it is taken to be in µg/mL.

Solved cases below.
COc1ccc2c(c[n+]3c4c2ccc2c5c(cc(c24)CC3)OCO5)c1NCc1ccco1.[Cl-] 32
COc1ccc2c(c[n+]3c4c2ccc2c5c(cc(c24)CC3)OCO5)c1NCc1ccccc1.[Cl-] 8
COc1ccc2c(c[n+]3c4c2ccc2c5c(cc(c24)CC3)OCO5)c1OCC(=O)C(C)(C)C.[Br-] 32

Kindly consider the entry below.
Specify the recorded MIC for `COc1ccc(C(=O)COc2c(OC)ccc3c2c[n+]2c4c3ccc3c5c(cc(c34)CC2)OCO5)cc1C(F)(F)F.[Br-]` , system: Staphylococcus epidermidis.
4

###

# Tested on: Staphylococcus aureus
# Assay Overview: Antimicrobial activity against methicillin-resistant Staphylococcus aureus isolate 12-8 after 18 hrs by agar dilution assay
# Format: functional
# Cond: isolate 12-8, 18 h
Exam item: assign y to entries whose MIC is below 8 µg/mL and n to entries at or above 8 µg/mL. Note that a value of exactly 8 µg/mL receives n.

Please review the following examples before continuing.
Molecule	Assay System	Label Value
COc1ccc2c(c[n+]3c4c2ccc2c5c(cc(c24)CC3)OCO5)c1O.[Cl-]	Staphylococcus aureus	y
COc1ccc2c(c[n+]3c4c2ccc2c5c(cc(c24)CC3)OCO5)c1OCC(=O)C(C)(C)C.[Br-]	Staphylococcus aureus	n

Regarding `COc1ccc2c(c[n+]3c4c2ccc2c5c(cc(c24)CC3)OCO5)c1OCC(=O)c1ccccc1.[Br-]` , kindly confirm whether its MIC is beneath 8 µg/mL.
n

Regarding `CCC(=O)COc1c(OC)ccc2c1c[n+]1c3c2ccc2c4c(cc(c23)CC1)OCO4.[Br-]` , kindly confirm whether its MIC is beneath 8 µg/mL.
n

Regarding `COc1ccc2c(c[n+]3c4c2ccc2c5c(cc(c24)CC3)OCO5)c1OCC(=O)C1CC1.[Br-]` , kindly confirm whether its MIC is beneath 8 µg/mL.
n

Regarding `COc1ccc2c(c[n+]3c4c2ccc2c5c(cc(c24)CC3)OCO5)c1NC(=O)C12CC3CC(CC(C3)C1)C2.[Cl-]` , kindly confirm whether its MIC is beneath 8 µg/mL.
n

Regarding `COc1ccc2c(c[n+]3c4c2ccc2c5c(cc(c24)CC3)OCO5)c1N.[Cl-]` , kindly confirm whether its MIC is beneath 8 µg/mL.
y

Regarding `COc1ccc2c(c[n+]3c4c2ccc2c5c(cc(c24)CC3)OCO5)c1OCC(=O)C12CC3CC(CC(C3)C1)C2.[Br-]` , kindly confirm whether its MIC is beneath 8 µg/mL.
y

Regarding `COc1ccc2c(c[n+]3c4c2ccc2c5c(cc(c24)CC3)OCO5)c1NC(=O)c1c(C)noc1C.[Cl-]` , kindly confirm whether its MIC is beneath 8 µg/mL.
n

Regarding `COc1ccc2c(c[n+]3c4c2ccc2c5c(cc(c24)CC3)OCO5)c1NC(=O)c1cc(C)n(C)n1.[Cl-]` , kindly confirm whether its MIC is beneath 8 µg/mL.
n

Regarding `COc1ccc2c(c[n+]3c4c2ccc2c5c(cc(c24)CC3)OCO5)c1NC(=O)c1ccccn1.[Cl-]` , kindly confirm whether its MIC is beneath 8 µg/mL.
n

Regarding `COc1ccc2c(c[n+]3c4c2ccc2c5c(cc(c24)CC3)OCO5)c1NC(=O)c1csnn1.[Cl-]` , kindly confirm whether its MIC is beneath 8 µg/mL.
y

Regarding C[C@H]1COc2c(N3CCN(C)CC3)c(F)cc3c(=O)c(C(=O)O)cn1c23.C[C@H]1COc2c(N3CCN(C)CC3)c(F)cc3c(=O)c(C(=O)O)cn1c23.O [LEVOFLOXACIN] , kindly confirm whether its MIC is beneath 8 µg/mL.
n

###

# Tested on: Staphylococcus aureus
# Assay Overview: Antimicrobial activity against methicillin-resistant Staphylococcus aureus isolate 12-8 after 18 hrs by agar dilution assay
# Type: functional
# Cond: isolate 12-8, 18 h
Parameter: MIC. Scope: all listed entries.
Please give a number only; it is taken to be in µg/mL.

Solved cases below.
COc1ccc(C(=O)COc2c(OC)ccc3c2c[n+]2c4c3ccc3c5c(cc(c34)CC2)OCO5)cc1C(F)(F)F.[Br-] 8
COc1ccc2c(c[n+]3c4c2ccc2c5c(cc(c24)CC3)OCO5)c1NCc1ccco1.[Cl-] 64
COc1ccc2c(c[n+]3c4c2ccc2c5c(cc(c24)CC3)OCO5)c1NCc1ccccc1.[Cl-] 64
COc1ccc2c(c[n+]3c4c2ccc2c5c(cc(c24)CC3)OCO5)c1OCC(=O)c1cccc(OC(F)(F)F)c1.[Br-] 8

Please look at this molecule and report its MIC: `COc1ccc2c(c[n+]3c4c2ccc2c5c(cc(c24)CC3)OCO5)c1OCC(=O)c1ccc(C)cc1.[Br-]`
8

Please look at this molecule and report its MIC: `COc1cccc(C(=O)COc2c(OC)ccc3c2c[n+]2c4c3ccc3c5c(cc(c34)CC2)OCO5)c1.[Br-]`
16

Please look at this molecule and report its MIC: `COc1ccc2c(c[n+]3c4c2ccc2c5c(cc(c24)CC3)OCO5)c1NC(=O)CC1CCCC1.[Cl-]`
8

###

# System: Staphylococcus aureus
# Assay Overview: Antimicrobial activity against methicillin-resistant Staphylococcus aureus ATCC-BAA-1708 after 18 hrs by agar dilution assay
# Assay type: functional
# Cond: ATCC-BAA-1708, 18 h
Observed Property: MIC (µg/mL)
Please give a number only; it is taken to be in µg/mL.

COc1ccc2c(c[n+]3c4c2ccc2c5c(cc(c24)CC3)OCO5)c1OCC(=O)c1cccc(OC(F)(F)F)c1.[Br-] 64
COc1ccc2c(c[n+]3c4c2ccc2c5c(cc(c24)CC3)OCO5)c1OCC(=O)c1ccccc1.[Br-] 32
COc1ccc2c(c[n+]3c4c2ccc2c5c(cc(c24)CC3)OCO5)c1OCC(=O)C12CC3CC(CC(C3)C1)C2.[Br-] 4

Please look at this compound and report its MIC: `COc1ccc2c(c[n+]3c4c2ccc2c5c(cc(c24)CC3)OCO5)c1N.[Cl-]`
4

Please look at this compound and report its MIC: `COc1ccc2c(c[n+]3c4c2ccc2c5c(cc(c24)CC3)OCO5)c1O.[Cl-]`
0.5

###

Parameter: MIC. Scope: all listed entries.
# Test system: Staphylococcus aureus
# Assay Overview: Antimicrobial activity against methicillin-sensitive Staphylococcus aureus isolate 13-17 after 18 hrs by agar dilution assay
# Assay type: functional
# Cond: isolate 13-17, 18 h
Please give a number only; it is taken to be in µg/mL.

COc1ccc2c(c[n+]3c4c2ccc2c5c(cc(c24)CC3)OCO5)c1OCC(=O)c1ccccc1.[Br-] 16
COc1ccc2c(c[n+]3c4c2ccc2c5c(cc(c24)CC3)OCO5)c1O.[Cl-] 0.25
COc1cccc(C(=O)COc2c(OC)ccc3c2c[n+]2c4c3ccc3c5c(cc(c34)CC2)OCO5)c1.[Br-] 4
COc1ccc2c(c[n+]3c4c2ccc2c5c(cc(c24)CC3)OCO5)c1N.[Cl-] 4
COc1ccc2c(c[n+]3c4c2ccc2c5c(cc(c24)CC3)OCO5)c1NCc1ccccc1.[Cl-] 64
COc1ccc2c(c[n+]3c4c2ccc2c5c(cc(c24)CC3)OCO5)c1OCC(=O)c1ccc(C)cc1.[Br-] 4
COc1ccc(C(=O)COc2c(OC)ccc3c2c[n+]2c4c3ccc3c5c(cc(c34)CC2)OCO5)cc1C(F)(F)F.[Br-] 4
COc1ccc2c(c[n+]3c4c2ccc2c5c(cc(c24)CC3)OCO5)c1OC(C)=O.[Cl-] 1

Please look at this compound and report its MIC: `COc1ccc2c(c[n+]3c4c2ccc2c5c(cc(c24)CC3)OCO5)c1OCC(=O)c1cccc(OC(F)(F)F)c1.[Br-]`
16

###

Parameter: MIC. Scope: all listed entries.
# Test system: Staphylococcus hominis
# Assay Overview: Antimicrobial activity against Staphylococcus hominis ATCC 35982 after 18 hrs by agar dilution assay
# Format: functional
# Cond: ATCC 35982, 18 h

COc1ccc2c(c[n+]3c4c2ccc2c5c(cc(c24)CC3)OCO5)c1NC(=O)c1cc(C)n(C)n1.[Cl-] > 64 µg/mL
COc1ccc2c(c[n+]3c4c2ccc2c5c(cc(c24)CC3)OCO5)c1OCC(=O)c1ccc(C)cc1.[Br-] 4 µg/mL
COc1ccc2c(c[n+]3c4c2ccc2c5c(cc(c24)CC3)OCO5)c1N.[Cl-] 8 µg/mL

Kindly consider the entry below.
Please look at this compound and report its MIC: `COc1ccc2c(c[n+]3c4c2ccc2c5c(cc(c24)CC3)OCO5)c1NC(=O)c1csnn1.[Cl-]`
2 µg/mL

###

# Tested on: Staphylococcus aureus
# Assay Overview: Antimicrobial activity against methicillin-resistant Staphylococcus aureus isolate 12-16 after 18 hrs by agar dilution assay
# Format: functional
# Cond: isolate 12-16, 18 h
Observed Property: log10(MIC) (log10 of the value in µg/mL)
Remember, log10 of MIC, in µg/mL.

Solved cases below.
COc1cccc(C(=O)COc2c(OC)ccc3c2c[n+]2c4c3ccc3c5c(cc(c34)CC2)OCO5)c1.[Br-] 0.90
COc1ccc2c(c[n+]3c4c2ccc2c5c(cc(c24)CC3)OCO5)c1OCC(=O)C(C)(C)C.[Br-] 1.51
COc1ccc2c(c[n+]3c4c2ccc2c5c(cc(c24)CC3)OCO5)c1OCC(=O)c1ccc(F)cc1.[Br-] 1.20
COc1ccc2c(c[n+]3c4c2ccc2c5c(cc(c24)CC3)OCO5)c1NC(=O)c1csnn1.[Cl-] 0.30

Kindly consider the entry below.
Please look at this molecule and report its log10(MIC): `COc1ccc2c(c[n+]3c4c2ccc2c5c(cc(c24)CC3)OCO5)c1N.[Cl-]`
0.60
